Test: A qHTS for Small Molecule Inhibitors of Shiga Toxin; further: 0% is about no effect
Conditions: Vero cells, Shiga toxin protein synthesis inhibition reporter; at 38.7 µM, stronger effect = higher value
Hit rate of the full screen: of about 290,000 compounds, about 27,000 (9.3%) were called active. This is one part of a sample in which actives are shown more often than they occur.
assay_readout: inhibition (%)
Quick note: give the figure in %, leave out the unit.

Check out these entries, answers already filled in.
Cc1cc(C)cc(OCC(=O)NC(C)c2ccccc2)c1 (centres undefined)	16.2
Cc1cccc(NC(=S)Nc2ccc(Cl)c(Cl)c2)c1	17
Cc1cccc(C(=O)Nc2ccc(CC(=O)O)cc2)c1	18.5

# molecule `Cn1cc(Cl)c(C(=O)NNC(=S)Nc2cccc(Cl)c2)n1` ; its inhibition = 49.5

----------
Quick reference: inhibition of the listed items.
Experiment: A qHTS for Small Molecule Inhibitors of Shiga Toxin; further: 0% is about no effect
Conditions: Vero cells, Shiga toxin protein synthesis inhibition reporter; at 38.7 µM, stronger effect = higher value
In all, about 290,000 compounds went through this assay and about 27,000 (9.3%) were called active. The sample holds actives, similar compounds and a random draw of the others, so the mix is not that of the screen.
Answer in %, number only, no unit symbol.

// below: answered molecules
COC(=O)c1ccc(Sc2ccc(F)cc2)c(N)c1	64.7
CCc1ccc(NC(=O)CCNS(=O)(=O)c2cccs2)cc1	53.4
Cc1ccc(-c2csc(NNC(=O)c3ccccc3)n2)cc1	1.14
Cc1ccc(-c2csc(NC(=O)Cc3cccs3)n2)cc1C	37.6
CC1(c2ccc(Cl)cc2)NC(=O)N(CC(=O)c2ccc3c(c2)OCO3)C1=O (stereo not drawn)	1.96

# inhibition (molecule: CCS(=O)(=O)Nc1ccc(C2=NN(C(C)=O)C(c3cccs3)C2)cc1 (stereo not drawn) ) is 12.4

# inhibition (molecule: `CCc1cccc(NC(=O)CCNS(=O)(=O)c2cccc3nonc23)c1` ) is -3.23

Form field inhibition, entry `O=C(c1ccc(Cl)c(Cl)c1)N1CCCC1` : -12.2

The recorded inhibition for `Cc1ccc(NNC(=O)c2cccs2)cc1Cl` is 22.1

The recorded inhibition for COc1ccccc1N1CCC(N2CCN(CC(C)(C)C)C(CCO)C2)CC1 (stereo not drawn) is -5.66

Query `c1cnc(N2CCN(c3ccc4ccccc4n3)CC2)nc1` yields inhibition of 71.6

`Nc1cc(N2CCCCCC2)c2nonc2c1[N+](=O)[O-]` has a reported inhibition of -13.9

inhibition in this record for `Cc1ccccc1CN1C(=O)c2ccccc2Sc2ccc(C(=O)NCCCN3CCOCC3)cc21` : -7.27

get_value(item= `CS(=O)(=O)Nc1cccc(-c2cn3ccccc3n2)c1` , readout=inhibition) returns 87

Quick note, inhibition for `COC(=O)c1nc(NC(=O)c2ccc(F)cc2)n[nH]1` landed at 0.673

The recorded inhibition for entry `Fc1ccc(-c2csc(-c3ccc(C4SCCS4)cc3)n2)cc1F` equals -3.43

inhibition recorded for this molecule, CCc1ccc(OCC(=O)OC(C)C(=O)NC2CC2)cc1 (stereo not drawn) , is -3.01

Summary for this molecule, Cc1ccc(C2CC(c3cccc(NS(C)(=O)=O)c3)=NN2S(C)(=O)=O)cc1 (stereo not drawn) : inhibition is 77.9

Note to self: inhibition recorded for `CCCOc1ccc(/C=N/NC(=O)C2CC2)c(OCCC)c1` was -6.76

Kindly note the recorded inhibition for `O=C(CN1CCN(c2ccccc2F)CC1)c1ccc2c(c1)OCO2` , which is 53

Data point: CSCCC(NS(=O)(=O)c1ccc(C)cc1)C(=O)N1CCCC1 (stereo not drawn) ; inhibition = -8.89

----------
Assay: A qHTS for Small Molecule Inhibitors of Shiga Toxin; further: 0% is about no effect
Settings: Vero cells, Shiga toxin protein synthesis inhibition reporter; at 38.7 µM, stronger effect = higher value
The campaign covered roughly 290,000 compounds. About 27,000 (9.3%) were called active. The full list was thinned out, with actives kept by preference.
assay_readout: inhibition (%)
API: value field is a number in %; no unit string.

Take a look at these entries with their results.
CCOc1ccc(-n2c(SCC(=O)OC)nc3sc4c(c3c2=O)CCN(C)C4)cc1	11.7
COC(=O)c1cc2c(N)c(C(=O)c3ccc(Cl)cc3)sc2nc1C(OC)OC	-1.42

inhibition measured on `COc1ccc(C)cc1S(=O)(=O)N1CCN(S(=O)(=O)c2cc(C(=O)O)ccc2C)CC1` = -1.74

Documented inhibition of `C/C(=N\NC(=O)OC(C)(C)C)c1ccc[nH]1` : 94.2

Value of measured inhibition for the entry `NC(=O)c1sc2nc3c(c(-c4ccccc4)c2c1N)CCC3` : -11.8

Per the record, `Cc1ccc(N=Nc2c(C)[nH]n(-c3ccccc3)c2=O)cc1` has inhibition of 25.5

----------
Experiment: A qHTS for Small Molecule Inhibitors of Shiga Toxin; further: 0% is about no effect
Conditions: Vero cells, Shiga toxin protein synthesis inhibition reporter; at 38.7 µM, stronger effect = higher value
The campaign covered roughly 290,000 compounds. About 27,000 (9.3%) were called active. For the sample, actives were picked, then their nearest neighbours and some compounds at random.
assay_readout: inhibition

Field: example entries. Status: answers known.
COc1ccc(NC(=O)CCC(=O)Nc2nnc(C3CCCCC3)s2)cc1	-3.77% (inactive)
C/C(=N\NC(=O)C1(C)CC1(Br)Br)c1ccc(C)cc1C (stereo not drawn)	-7.42% (inactive)
CC(=O)Oc1cc2c(C(=O)NCCN3CCOCC3)c(C)oc2c2ccccc12	44.7% (active)
O=C(Nc1nnc(C2CC2)s1)c1cc(Cl)sc1Cl	48% (active)
CN(C)N1C(N)=C(C#N)C(c2ccc(Br)cc2)C2=C1CCCC2=O (stereo not drawn)	-14.3% (inactive)
C=CCn1c(SCC(=O)NC)nnc1C12CC3CC(CC(C3)C1)C2	13.7% (inactive)
Cc1cccc(NS(=O)(=O)c2ccc(C(=O)NCC(C)(C)N3CCOCC3)cc2)c1C	-13% (inactive)
CCCc1nnc(NC(=O)CCC(=O)N2CCN(S(=O)(=O)c3ccc(OC)cc3)CC2)s1	4.3% (inactive)
CC(OC(=O)c1ccccc1OCc1ccc(Cl)cc1)C(N)=O (stereo not drawn)	-20.8% (inactive)
COc1cc(C(=O)NCCOC(=O)c2cccc(N(C)C)c2)cc(OC)c1OC	-2.34% (inactive)

So, CCCCCCC(=O)N(O)C1CC(=O)N(c2ccccc2)C1=O (stereo not drawn) ? Its inhibition was -2.28% (inactive)

The reported inhibition of the compound `Cc1ccc(NS(=O)(=O)c2cc3c(cc2C)NC(=O)CO3)cc1` was -3.52% (inactive)

The compound `CCOC(=O)c1cc(Sc2ccccc2N)cc(C(=O)OCC)n1` showed inhibition equal to -2.59% (inactive)

----------
Experiment: A qHTS for Small Molecule Inhibitors of Shiga Toxin; further: 0% is about no effect
Settings: Vero cells, Shiga toxin protein synthesis inhibition reporter; at 38.7 µM
In all, about 290,000 compounds went through this assay and about 27,000 (9.3%) were called active. Cut-off read from the data, not from the text of the source: active = inhibition mostly above about 28% (no sharp cut-off); inactive = mostly below about 43%. What follows is part of a selection rich in actives, with near analogues and random picks from the rest.
Allowed answers: y for active, n for inactive

Some solved entries appear below for comparison.
Cc1ccc(S(=O)(=O)Nc2nc(C)cc(N/N=C/c3ccc(O)cc3)n2)cc1	n
Cc1nnc(C)n1/N=C/c1ccc(C(C)C)cc1	n
CC(=O)c1sc(N/N=C/c2ccc(C(C)C)cc2)nc1C	y
COC(=O)c1sc(NC(=S)NC(=O)c2ccc(C)cc2)nc1C	n

Q: Answer briefly: the call reported for `Cc1ccc(/C=C2\SC(=S)N(CCC(=O)Nc3ccc(O)cc3)C2=O)cc1` in this assay.
A: n

Q: State the result this test recorded for O=C1/C(=C/c2ccc3c(c2)OCO3)Oc2cc(OCC(=O)N3CC(O)C[C@H]3C(=O)O)ccc21 (some centres not stated) .
A: n

Q: Entry `CCOC(=O)c1sc(NC(=O)c2ccncc2)nc1C` : call = ?
A: n

----------
Assay: A qHTS for Small Molecule Inhibitors of Shiga Toxin; further: 0% is about no effect
Settings: Vero cells, Shiga toxin protein synthesis inhibition reporter; at 38.7 µM, stronger effect = higher value
Out of some 290,000 compounds screened, about 27,000 (9.3%) were called active. Many of the other results were omitted from the sample, so actives are more common in it than they were.
Listing: inhibition of selected compounds
Answer format: numeric, % implied, no suffix.

Worked cases, inhibition given:
Cc1cccc2c1cnn2C(=O)CCC(=O)NC1CCCCC1	-4.08
O=c1[nH]c(SCc2ccccc2)nnc1-c1ccccc1	36.4
COc1ccccc1N1CC(O)=C(c2nc3ccccc3s2)C1=N	31.4
COc1cccc(N(CC(=O)NC2CCCCCC2)S(=O)(=O)c2ccccc2)c1	-29.3
COc1ccc(OCc2nnc3n2N=C(c2ccccc2)C(CC(=O)O)S3)cc1 (stereo unspecified)	-9.4

# inhibition (compound: COc1ccc(CNC(=O)C(C)n2nc(C)c3c(C)n(-c4ccccc4)nc3c2=O)c(OC)c1 (stereo unspecified) ) is -6.6

Lookup result for COc1ccc(N2C(=O)C(CC(=O)Nc3ccccc3)N(Cc3ccc(OC)c(OC)c3)C2=O)cc1 (stereo unspecified) ; measured inhibition: 40.7

Recorded result, `O=C(Nc1nc2ccc([N+](=O)[O-])cc2s1)c1ccc(S(=O)(=O)N2CCCc3ccccc32)cc1` , inhibition: -9.77

inhibition recorded for this compound, `N=C1C(c2nc3ccccc3s2)=C(O)CN1NC(=O)c1ccc([N+](=O)[O-])cc1` , is 49.3

Record `Cc1ccccc1CSc1nnc(-c2ccccc2)c(=O)[nH]1` . Reported inhibition: -6.33

`O=C(CN1CCN(c2ccc(O)cc2)CC1)Nc1ccc(-c2ccccc2)cc1` has a reported inhibition of 2.35
